- Tested on: surinam grass
- protocol_text: Test B pre/postemergence surinam grass
- Assay type: in vivo, Brachiaria decumbens
- measurement_parameters: Preemergence, Rate 62 g/ha; scale of 0 to 10 where 0 is no effect and 10 is complete control
Please respond with reported B. signalgrass plant response rating for every item in the list.
The reply should be a number, written without any unit.

Ask: What value of measured B. signalgrass plant response rating is listed for CC(C)N(C(=O)n1oc(=O)n(CC(F)F)c1=O)c1ccc(F)cc1 [Compound 710] ?
Reply: 8

Ask: Entry to check: COc1cc(C)cc(C)c1-n1c(=O)on(C(=O)N(c2ccc(F)cc2F)C(C)C)c1=O [Compound 223]
Reply: 0

Ask: Entry to check: Cc1ccccc1-n1c(=O)on(C(=O)N(c2ccc(OC(F)(F)F)cc2)C(C)C)c1=O [Compound 300]
Reply: 0

Ask: Entry to check: C#CCn1c(=O)on(C(=O)N(c2ccccc2)C(C)C)c1=O [Compound 754]
Reply: 3

###

Please respond with reported Redroot pigweed plant response rating for every item in the list.
- Tested on: pigweed
- protocol_text: Test B pre/postemergence pigweed
- Format: in vivo, Amaranthus retroflexus
- measurement_parameters: Rate 62 g/ha, Postemergence; scale of 0 to 10 where 0 is no effect and 10 is complete control
- Description: […] At the same time, these crop and weed species were also treated with postemergence applications of test chemicals formulated in the same manner. […] Treated plants and controls were maintained in a greenhouse for twelve to sixteen days, after which all species were compared to controls and visually evaluated. […]

Ask: Find the measured Redroot pigweed plant response rating: item Cc1nn(C)c(Cl)c1-n1c(=O)on(C(=O)N(c2ccccc2)C(C)C)c1=O [Compound 121] , target or system pigweed.
Reply: 2

Ask: Entry to check: CC(C)N(C(=O)n1oc(=O)n(C(C)C)c1=O)c1ccc(Cl)cc1 [Compound 114]
Reply: 0

Ask: Entry to check: CC1CC1n1c(=O)on(C(=O)N(c2ccc(Cl)cc2)C(C)C)c1=O (stereo not drawn) [Compound 369]
Reply: 0

Ask: Entry to check: CC(C)N(C(=O)n1oc(=O)n(N2C(C)CCCC2C)c1=O)c1ccc(F)cc1 (stereo not drawn) [Compound 382]
Reply: 0

Ask: Entry to check: CC(C)N(C(=O)n1oc(=O)n(Cc2ccccc2Cl)c1=O)c1ccc(F)cc1 [Compound 140]
Reply: 0

Ask: Entry to check: CCn1c(=O)on(C(=O)N(c2ccccc2)C(C)C)c1=O [Compound 117]
Reply: 0

###

- Test system: wild oat
- protocol_text: Test B pre/postemergence wild oat
- Type: in vivo, Avena fatua
- measurement_parameters: Rate 250 g/ha, Postemergence; scale 0 to 10, 0 is no effect, 10 is complete control
Please respond with reported Plant response rating, Wild oats for every item in the list.
The reply should be a number, written without any unit.

Ask: What value of measured Plant response rating, Wild oats is listed for CCCn1c(=O)on(C(=O)N(c2ccc(F)cc2)C(C)C)c1=O [Compound 91] ?
Reply: 3

Ask: Entry to check: CC(C)c1noc(C(C)C)c1-n1c(=O)on(C(=O)N(c2ccc(F)cc2)C(C)C)c1=O [Compound 135]
Reply: 0

Ask: Entry to check: C=CCn1c(=O)on(C(=O)N(c2ccc(Cl)cc2)C(C)C)c1=O [Compound 105]
Reply: 2

Ask: Entry to check: CC(C)N(C(=O)n1oc(=O)n(C(C)C)c1=O)c1ccc(Cl)cc1 [Compound 114]
Reply: 2

Ask: Entry to check: CCn1c(=O)on(C(=O)N(c2ccccc2)C(C)C)c1=O [Compound 117]
Reply: 4

Ask: Entry to check: CCCn1c(=O)on(C(=O)N(c2ccc(F)cc2F)C(C)C)c1=O [Compound 130]
Reply: 5
